Measured values drawn from paper PMC11995724 for this set.

Reported viability at 48 h, 25 µM values are given for each entry in this list.
method: in vitro
settings: human, hek293t cells

{"columns": ["compound", "viability at 48 h, 25 µM"],
 "data": [
  ["C=CC(=O)N1CCC(C(=O)NCc2nnc(C(C)C)n2C)CC1", "78.5%"],
  ["CC(Cl)C(=O)N1C2C=C(c3ccccc3)CC1CC2 (stereo not drawn)", "81.3%"],
  ["COc1ccc(C=C(C#N)C(=O)Nc2ccc([N+](=O)[O-])cc2)cc1", "81.5%"]
]}

====

Reported viability at 48 h, 25 µM values are given for each entry in this list.
method: in vitro
settings: human, hek293t cells
measured_parameter: viability at 48 h, 25 µM (%)

{"columns": ["molecule", "number"],
 "data": [
  ["CC(NC(=O)CCl)c1ccc(-c2ccccc2)cc1 (centres unmarked) [5-A17]", 123],
  ["CCOc1cc2c(cc1C=C(C#N)C(N)=O)OC(C)C2 (centres unmarked) [9-D04]", 128],
  ["O=C(CCl)Nc1cccc(NC(=O)c2ccccc2)c1 [6-A03, N-[3-(2-chloroacetamido)phenyl]benzamide]", -0.0459],
  ["N#CC(=Cc1coc2ccccc2c1=O)C(=O)NCCc1ccccc1 [9-J10]", 107],
  ["Cc1ccc(C)c(C=C(C#N)C(=O)Nc2nccs2)c1 [9-N13]", 126],
  ["Cc1nc([C@H]2CCCN2C(=O)C(C)Cl)cs1 (some centres unmarked) [7-O04]", 95.2],
  ["C=CC(=O)N1CCN(CC2CCOC2)CC1 (centres unmarked) [1-H18]", 49.6],
  ["CN(CCC1CCCCC1)C(=O)CCl [5-A06]", 0.304],
  ["CCOc1ccc(NC(=O)C(C)Cl)cc1 (centres unmarked) [6-O09, 2-chloro-N-(4-ethoxyphenyl)propanamide]", 89.5],
  ["C=CC(=O)N(Cc1ccc(OC)cc1)[C@@H]1CCCC[C@H]1O [2-M05]", 97.6],
  ["CCc1ccc(NC(=O)C(C#N)=Cc2cccnc2)cc1 [8-G04]", 86.1],
  ["CC(Cl)C(=O)N1CCCCC1c1nc(-c2ncccn2)no1 (centres unmarked) [7-D15]", 85.8],
  ["N#CC(=Cc1ccccc1)C(=O)Nc1nnn[nH]1 [8-J14]", 111],
  ["C=CC(=O)N1CCC(C(O)c2ccnn2C)CC1 (centres unmarked) [3-K03]", 59],
  ["COc1ccc(C=C(C#N)C(=O)Nc2cccc(C)c2)cc1 [8-M03]", 95.7],
  ["C=CC(=O)Nc1ccnn1C(C)C [2-O07]", 101],
  ["C=CC(=O)NCc1nc(C2CC2)oc1C [2-P13]", 52.6]
]}
